Taken from patent US20110306636A1.

- test-target: S1P3 (Homo sapiens)
- Sequence (Q99500 whole entry, species assumed): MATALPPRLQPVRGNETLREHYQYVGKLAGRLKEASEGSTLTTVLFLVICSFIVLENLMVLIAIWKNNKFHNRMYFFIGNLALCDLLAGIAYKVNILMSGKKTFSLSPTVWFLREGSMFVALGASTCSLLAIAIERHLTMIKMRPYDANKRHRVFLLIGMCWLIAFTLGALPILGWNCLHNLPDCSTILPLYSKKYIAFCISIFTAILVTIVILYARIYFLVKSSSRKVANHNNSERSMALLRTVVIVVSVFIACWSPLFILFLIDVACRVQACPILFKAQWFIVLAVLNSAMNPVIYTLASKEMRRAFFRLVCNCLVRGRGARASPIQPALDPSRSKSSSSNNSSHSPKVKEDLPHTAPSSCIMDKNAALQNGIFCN
- measurement-description: 35S-GTPγS binding assay, S1P3 membranes
- experimental-setup: membranes from CHO cells expressing S1P3; read-out: S1P3/GTPG EC50
Structures can show the parent of a compound that is named as a salt.
Catalogue of pEC50 values
In textbook form, pEC50 equals minus log to base ten of the concentration in mol/L.

[
  {
    "compound": "COCc1cc(-c2nc(-c3cnc(NCCC(=O)O)c(Cl)c3)no2)ccc1-c1ccccc1C [Example 37, hydrochloride salt]",
    "pEC50": 5.68
  },
  {
    "compound": "COCc1cc(-c2nc(-c3ccnc(NCCC(=O)O)c3)no2)ccc1-c1ccccc1C [Example 7, hydrochloride salt]",
    "pEC50": 6.93
  },
  {
    "compound": "COCc1cc(-c2nc(-c3ccc(NCCC(=O)O)nc3)no2)ccc1-c1ccccc1C [Example 2, hydrochloride salt]",
    "pEC50": 5.72
  },
  {
    "compound": "COCc1cc(-c2nc(-c3ccc(O)nc3)no2)ccc1-c1ccccc1C",
    "pEC50": 6.37
  },
  {
    "compound": "COCc1cc(-c2nc(-c3ccnc(N)c3)no2)ccc1-c1ccccc1C [Example 15, hydrochloride salt]",
    "pEC50": 6.38
  },
  {
    "compound": "COCc1cc(-c2nc(-c3ccc(O)nc3)no2)ccc1N1CCCCC1C (stereo not shown)",
    "pEC50": 6.82
  }
]

Qu. Supply reported pEC50 belonging to this compound: CCC1CCCCN1c1ccc(-c2nc(-c3ccc(N)nc3)no2)cc1COC (stereo not shown)
Ans. 5.78

Qu. Supply reported pEC50 belonging to this compound: COCc1cc(-c2nc(-c3ccc(N)nc3)no2)ccc1-c1ccccc1C [Example 4, hydrochloride salt]
Ans. 5.57

Qu. Supply reported pEC50 belonging to this compound: COCc1cc(-c2nc(-c3ccc(N)nc3)no2)ccc1N1CCCCC1C (stereo not shown)
Ans. 5.58

Qu. Supply reported pEC50 belonging to this compound: COCc1cc(-c2nc(-c3cnc(N)c(Cl)c3)no2)ccc1-c1ccccc1C
Ans. 5.84
